As shown below, each of these binders has a reported IC50, ELK1-luciferase reporter (hGFRAL/hRET) value.
system under test: T1, human GFRAL expressed on cells (human, UniProt Q6UXV0 20-394)
T1 sequence: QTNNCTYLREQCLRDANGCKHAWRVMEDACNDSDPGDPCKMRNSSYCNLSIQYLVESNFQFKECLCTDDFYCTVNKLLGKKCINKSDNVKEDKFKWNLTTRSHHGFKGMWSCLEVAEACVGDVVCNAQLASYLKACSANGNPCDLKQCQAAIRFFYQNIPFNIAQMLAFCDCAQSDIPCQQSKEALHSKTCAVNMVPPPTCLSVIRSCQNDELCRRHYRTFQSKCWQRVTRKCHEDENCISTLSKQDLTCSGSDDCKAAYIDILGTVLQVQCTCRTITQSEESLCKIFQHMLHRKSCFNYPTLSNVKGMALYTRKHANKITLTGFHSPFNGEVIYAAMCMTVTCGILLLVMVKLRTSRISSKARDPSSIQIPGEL
assay protocol: cell-based or functional assay
Reply numerically in nM, unit not repeated.

Solved entries (count: 2):
Write down IC50, ELK1-luciferase reporter (hGFRAL/hRET) measured for item humanized anti-GFRAL antibody HC-375d/LC-375a (antibody, V domains shown, humanized 5F12) VH: QVQLVQSGAEVKKPGSSVKVSCKASGYTFTDYYINWVRQAPGQGLEWIGRIYPGNGNTYHNEKFKGRATLTADKSTSTAYMELSSLRSEDTAVYYCAREGLYYDYDRYFDYWGQGTLVTVSS VL: DIVMTQSPDSLAVSLGERATINCRASESVDTYGNSFMHWYQQKPGQPPKLLIYLASNLESGVPDRFSGSGSGTDFTLTISSLQAEDVAVYYCHQNNEDPPAFGGGTKVEIK 3.86

Write down IC50, ELK1-luciferase reporter (hGFRAL/hRET) measured for item humanized anti-GFRAL antibody HC-375d/LC-375g (antibody, IgG1, V domains shown, humanized 5F12) VH: QVQLVQSGAEVKKPGSSVKVSCKASGYTFTDYYINWVRQAPGQGLEWIGRIYPGNGNTYHNEKFKGRATLTADKSTSTAYMELSSLRSEDTAVYYCAREGLYYDYDRYFDYWGQGTLVTVSS VL: DIVLTQSPDSLAVSLGERATINCRASESVDTYGNSFMHWYQQKPGQPPKLLIYLASNLESGVPDRFSGSGSRTDFTLTISSLQAEDVAVYYCHQNNEDPPAFGGGTKVEIK 2.79

Now, please, on to the next binder.
Write down IC50, ELK1-luciferase reporter (hGFRAL/hRET) measured for item antibody designated 5F12 (antibody, V domains shown, mouse hybridoma monoclonal; also called 5F12 Hybridoma) VH: QVQLKQSGTELVRPGASVKLSCKASGYTFTDYYINWVKQRPGQGLEWIARIYPGNGNTYHNEKFKGKATLTAEKSSSTAYMQLSSLTSEDSAVYFCAREGLYYDYDRYFDYWGQGTALTVSS VL: NIVLTQSPASLAVSLGQRATISCRASESVDTYGNSFMHWYQQKPGQPPKLLIYLASNLESGVPARFSGSGSRTDFTLTIDPVEADDAATYYCHQNNEDPPAFGGGTKLEIK 5.4

Values compiled from patent US20170306031A1.
